Experiment: Clinical pharmacokinetic study, plasma and urine, noncompartmental analysis
Conditions: Baseline: oral midazolam 2.5 mg alone; geometric mean [90% CI]
recorded-metric: Cmax (nM)
Answer in nM, number only, no unit symbol.

Item: OCc1ncc2n1-c1ccc(Cl)cc1C(c1ccccc1F)=NC2 [1’-Hydroxymidazolam, 1’-hydroxymidazolam] | Cmax: 12.3

====

Assay: Clinical pharmacokinetic study, plasma and urine, noncompartmental analysis
Conditions: both, human, plasma, oral
recorded-metric: AUC(0-inf) (µM·h)
Answer in µM·h, number only, no unit symbol.

Item: COc1ccc2cc3[n+](cc2c1OC)CCc1cc2c(cc1-3)OCO2 [berberine] | AUC(0-inf): 0.0467

====

Assay: Clinical pharmacokinetic study, plasma and urine, noncompartmental analysis
Conditions: both, human, plasma, po, tmax, Chronic exposure: goldenseal 1 g thrice daily for 6 days, midazolam 2.5 mg oral; median [range]
recorded-metric: tmax (h)
Answer in h, number only, no unit symbol.

Item: Cc1ncc2n1-c1ccc(Cl)cc1C(c1ccccc1F)=NC2O (stereo not shown) [4-Hydroxymidazolam, 4-hydroxymidazolam] | tmax: 1
